Answer each item with its documented 100 nM hIL-36R-MMH Bound (RU).
biological target: T1, human IL-36R extracellular domain expressed with a C-terminal myc-myc-hexahistidine tag (hIL-36R-MMH) (human, UniProt Q9HB29 20-337); assay: SPR Biacore T200, mAb captured on anti-hFc, 37C, PBS-T pH 6.0 running buffer
T1 construct: also called Human IL-36R-MMH; REGN2105
T1 sequence (Q9HB29 other isoform, or with tags, fused parts or gaps limits assumed): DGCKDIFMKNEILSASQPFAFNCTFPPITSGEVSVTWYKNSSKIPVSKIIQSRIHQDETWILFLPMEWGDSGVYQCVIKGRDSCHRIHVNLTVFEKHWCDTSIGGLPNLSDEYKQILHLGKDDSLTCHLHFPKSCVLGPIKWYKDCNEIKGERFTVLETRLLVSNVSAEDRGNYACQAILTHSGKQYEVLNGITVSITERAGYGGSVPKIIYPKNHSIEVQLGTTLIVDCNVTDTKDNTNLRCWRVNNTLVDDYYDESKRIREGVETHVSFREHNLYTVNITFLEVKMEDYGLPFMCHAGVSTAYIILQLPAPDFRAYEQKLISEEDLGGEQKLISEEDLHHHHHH
Only the number, expressed in RU, is required.

## Task Can you look up the measured 100 nM hIL-36R-MMH Bound (RU) of H4H14758P (antibody, human IgG4 S228P, kappa, V domains shown, Fully human anti-IL-36R antibody) VH: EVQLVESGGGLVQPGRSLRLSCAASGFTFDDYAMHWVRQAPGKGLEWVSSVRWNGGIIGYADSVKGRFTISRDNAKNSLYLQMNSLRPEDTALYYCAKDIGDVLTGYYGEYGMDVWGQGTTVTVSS VL: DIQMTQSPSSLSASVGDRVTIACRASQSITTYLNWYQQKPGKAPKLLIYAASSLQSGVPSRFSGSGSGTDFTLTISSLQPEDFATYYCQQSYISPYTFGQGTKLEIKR for me?
## Result 120

## Task Now this one: H4H14706P2 (antibody, human IgG4 S228P, kappa, V domains shown, Fully human anti-IL-36R antibody) VH: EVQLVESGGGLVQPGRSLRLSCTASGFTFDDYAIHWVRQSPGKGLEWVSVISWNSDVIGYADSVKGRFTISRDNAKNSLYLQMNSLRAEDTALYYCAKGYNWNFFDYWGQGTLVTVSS VL: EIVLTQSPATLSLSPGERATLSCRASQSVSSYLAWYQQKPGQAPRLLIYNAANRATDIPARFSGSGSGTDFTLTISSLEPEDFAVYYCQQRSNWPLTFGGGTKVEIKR
## Result 132

## Task Now this one: H4H14708P2 (antibody, human IgG4 S228P, kappa, V domains shown, Fully human anti-IL-36R antibody) VH: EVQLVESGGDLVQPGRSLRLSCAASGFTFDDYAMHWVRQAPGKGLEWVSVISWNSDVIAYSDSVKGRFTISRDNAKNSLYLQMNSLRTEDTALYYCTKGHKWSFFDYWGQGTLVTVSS VL: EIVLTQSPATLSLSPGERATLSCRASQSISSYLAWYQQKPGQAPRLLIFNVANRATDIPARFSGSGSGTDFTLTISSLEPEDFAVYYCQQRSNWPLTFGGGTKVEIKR
## Result 95
